# Test Target: human recombinant CblC pathogenic mutant Arg161Gly (Homo sapiens, UniProt Q9Y4U1, R161G)
# Sequence (Q9Y4U1 whole entry R161G): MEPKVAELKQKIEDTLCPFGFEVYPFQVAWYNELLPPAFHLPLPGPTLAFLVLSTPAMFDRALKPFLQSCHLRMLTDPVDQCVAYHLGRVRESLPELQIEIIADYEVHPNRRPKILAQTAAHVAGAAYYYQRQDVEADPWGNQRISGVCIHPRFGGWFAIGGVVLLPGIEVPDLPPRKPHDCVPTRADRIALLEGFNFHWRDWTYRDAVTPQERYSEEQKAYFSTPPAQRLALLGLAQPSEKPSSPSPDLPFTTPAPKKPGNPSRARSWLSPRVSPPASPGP
# Format: biochemical
# Assay Context: dealkylation; 5 mM GSH
Reported Property: Product under ambient conditions, Mutant Arg161Gly

Example cases with answers are listed next.
CC1=C2N=C(C=C3N=C(C(C)=C4[N-]C(C(CC(N)=O)C4(C)CCC(=O)NCC(C)OP(=O)([O-])OC4C(CO)OC(n5cnc6cc(C)c(C)cc65)C4O)C4(C)N=C1C(CCC(N)=O)C4(C)CC(N)=O)C(CCC(N)=O)C3(C)C)C(CCC(N)=O)C2(C)CC(N)=O.CSC[CH2][Co+2] (centres unmarked) [Me—S—EtCbl] : Cob(II)alamin
CC1=C2N=C(C=C3N=C(C(C)=C4[N-]C(C(CC(N)=O)C4(C)CCC(=O)NCC(C)OP(=O)([O-])OC4C(CO)OC(n5cnc6cc(C)c(C)cc65)C4O)C4(C)N=C1C(CCC(N)=O)C4(C)CC(N)=O)C(CCC(N)=O)C3(C)C)C(CCC(N)=O)C2(C)CC(N)=O.CS[CH2][Co+2] (centres unmarked) [Me—S—MeCbl] : Cob(II)alamin
CC1=C2N=C(C=C3N=C(C(C)=C4[N-]C(C(CC(N)=O)C4(C)CCC(=O)NCC(C)OP(=O)([O-])OC4C(CO)OC(n5cnc6cc(C)c(C)cc65)C4O)C4(C)N=C1C(CCC(N)=O)C4(C)CC(N)=O)C(CCC(N)=O)C3(C)C)C(CCC(N)=O)C2(C)CC(N)=O.CCC[CH2][Co+2] (centres unmarked) [BuCbl, butylcobalamin, reference compound] : No reaction
C/C1=C2/[N-][C@H]([C@H](CC(N)=O)[C@@]2(C)CCC(=O)NC[C@H](C)OP(=O)([O-])O[C@H]2[C@@H](O)[C@@H](n3cnc4cc(C)c(C)cc43)O[C@@H]2CO)[C@]2(C)N=C(/C(C)=C3N=C(/C=C4N=C1[C@@H](CCC(N)=O)C\4(C)C)[C@@H](CCC(N)=O)[C@]\3(C)CC(N)=O)[C@@H](CCC(N)=O)[C@]2(C)CC(N)=O.[CH3-].[Co+3] [MeCbl, Methylcobalamin, reference compound] : Cob(II)alamin

Product under ambient conditions, Mutant Arg161Gly in this record for CC1=C2N=C(C=C3N=C(C(C)=C4[N-]C(C(CC(N)=O)C4(C)CCC(=O)NCC(C)OP(=O)([O-])OC4C(CO)OC(n5cnc6cc(C)c(C)cc65)C4O)C4(C)N=C1C(CCC(N)=O)C4(C)CC(N)=O)C(CCC(N)=O)C3(C)C)C(CCC(N)=O)C2(C)CC(N)=O.CC[CH2][Co+2] (centres unmarked) [PrCbl, propylcobalamin, reference compound] : No reaction

---

# Test system: fibroblasts from healthy subjects
# Assay Name: MMA in conditioned medium of control fibroblasts
# Assay type: cell-based, human
# Assay Context: Controls; after 7 days wash-off period without supplemental cobalamin
Provide the reported MMA in conditioned medium of each item.
Give bare numbers, in μmol/mg protein.

Example compounds with recorded MMA in conditioned medium:
C/C1=C2/[N-][C@H]([C@H](CC(N)=O)[C@@]2(C)CCC(=O)NC[C@H](C)OP(=O)([O-])O[C@H]2[C@@H](O)[C@@H](n3cnc4cc(C)c(C)cc43)O[C@@H]2CO)[C@]2(C)N=C(/C(C)=C3N=C(/C=C4N=C1[C@@H](CCC(N)=O)C\4(C)C)[C@@H](CCC(N)=O)[C@]\3(C)CC(N)=O)[C@@H](CCC(N)=O)[C@]2(C)CC(N)=O.[CH3-].[Co+3] [MeCbl, Methylcobalamin, reference compound] : 0.131
CC([S][Co+2])C(=O)NCC(=O)O.CC1=C2N=C(C=C3N=C(C(C)=C4[N-]C(C(CC(N)=O)C4(C)CCC(=O)NCC(C)OP(=O)([O-])OC4C(CO)OC(n5cnc6cc(C)c(C)cc65)C4O)C4(C)N=C1C(CCC(N)=O)C4(C)CC(N)=O)C(CCC(N)=O)C3(C)C)C(CCC(N)=O)C2(C)CC(N)=O (centres unmarked) : 0.121
CC1=C2N=C(C=C3N=C(C(C)=C4[N-]C(C(CC(N)=O)C4(C)CCC(=O)NCC(C)OP(=O)([O-])OC4C(CO)OC(n5cnc6cc(C)c(C)cc65)C4O)C4(C)N=C1C(CCC(N)=O)C4(C)CC(N)=O)C(CCC(N)=O)C3(C)C)C(CCC(N)=O)C2(C)CC(N)=O.NCC[S][Co+2] (centres unmarked) : 0.154
C/C1=C2N=C(/C=C3N=C(/C(C)=C4\[N-]C(C(CC(N)=O)C4(C)CCC(=O)NCC(C)OP(=O)([O-])OC4C(CO)OC(n5cnc6cc(C)c(C)cc65)C4O)C4(C)N=C1C(CCC(N)=O)C4(C)CC(N)=O)C(CCC(N)=O)C\3(C)C)C(CCC(N)=O)C/2(C)CC(N)=O.NC(CCC(=O)NC(C[S-])C(=O)NCC(=O)O)C(=O)O.[Co+3] (centres unmarked) [GSCbl, glutathionylcobalamin, reference compound] : 0.134

In the following, a different compound is considered.
Documented MMA in conditioned medium of CC1=C2N=C(C=C3N=C(C(C)=C4[N-]C(C(CC(N)=O)C4(C)CCC(=O)NCC(C)OP(=O)([O-])OC4C(CO)OC(n5cnc6cc(C)c(C)cc65)C4O)C4(C)N=C1C(CCC(N)=O)C4(C)CC(N)=O)C(CCC(N)=O)C3(C)C)C(CCC(N)=O)C2(C)CC(N)=O.CS[CH2][Co+2] (centres unmarked) : 0.145
